Target: mTOR (Homo sapiens (Human), UniProt P42345)
Sequence (P42345 1360-2549): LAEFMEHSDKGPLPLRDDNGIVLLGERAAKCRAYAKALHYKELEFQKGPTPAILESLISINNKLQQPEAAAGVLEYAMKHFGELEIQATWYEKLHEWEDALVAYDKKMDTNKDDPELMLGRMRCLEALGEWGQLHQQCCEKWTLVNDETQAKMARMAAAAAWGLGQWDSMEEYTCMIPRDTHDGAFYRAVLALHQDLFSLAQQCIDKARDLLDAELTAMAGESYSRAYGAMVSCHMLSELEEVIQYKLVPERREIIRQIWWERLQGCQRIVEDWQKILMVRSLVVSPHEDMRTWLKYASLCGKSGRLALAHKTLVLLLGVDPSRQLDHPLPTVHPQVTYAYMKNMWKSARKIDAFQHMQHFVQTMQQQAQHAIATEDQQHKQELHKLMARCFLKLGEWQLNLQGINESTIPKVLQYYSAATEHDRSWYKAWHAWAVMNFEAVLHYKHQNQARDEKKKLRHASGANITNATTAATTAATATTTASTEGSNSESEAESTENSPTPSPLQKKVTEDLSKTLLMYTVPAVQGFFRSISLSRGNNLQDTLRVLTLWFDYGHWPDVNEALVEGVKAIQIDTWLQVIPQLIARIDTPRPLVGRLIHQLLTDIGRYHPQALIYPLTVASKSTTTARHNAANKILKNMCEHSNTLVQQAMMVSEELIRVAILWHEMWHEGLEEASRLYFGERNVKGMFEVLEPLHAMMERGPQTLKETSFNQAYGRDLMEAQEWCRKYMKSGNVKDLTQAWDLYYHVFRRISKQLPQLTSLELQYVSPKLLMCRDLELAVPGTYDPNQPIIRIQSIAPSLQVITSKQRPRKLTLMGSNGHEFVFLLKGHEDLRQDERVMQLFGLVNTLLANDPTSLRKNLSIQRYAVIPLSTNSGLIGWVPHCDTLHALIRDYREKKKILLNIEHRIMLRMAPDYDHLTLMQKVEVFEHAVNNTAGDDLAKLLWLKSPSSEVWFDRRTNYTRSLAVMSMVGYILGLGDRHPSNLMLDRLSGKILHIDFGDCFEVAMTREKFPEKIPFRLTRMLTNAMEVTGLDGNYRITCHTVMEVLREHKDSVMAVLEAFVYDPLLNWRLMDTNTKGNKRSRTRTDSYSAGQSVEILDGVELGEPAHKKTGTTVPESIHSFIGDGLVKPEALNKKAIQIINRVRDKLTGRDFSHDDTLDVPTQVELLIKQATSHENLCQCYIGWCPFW
Recorded IC50 for the following compounds
Enter your answer as a number in nM; do not include the unit.

Answered examples (6):
Mol | IC50 / nM
CCc1ncnc(N2CCN(C(=O)C3CC3)CC2)c1C#Cc1ccc(N)nc1 | 113
CCc1ncnc(N2CCC(C)(O)CC2)c1C#Cc1ccc(C)nc1 | 30
CCc1ncnc(N2CCC3(CCN(C(=O)NC)CC3)CC2)c1C#Cc1ccc(N)nc1 | 35
CCc1ncnc(N2CCC(CCO)CC2)c1C#Cc1ccc(N)nc1 | 5
Cc1ncnc(N2CCn3c(C)cnc3C2)c1C#Cc1ccc(N)nc1 | 97
Cc1ncnc(N2CCC(CC(=O)N(C)C)CC2)c1C#Cc1ccc(N)nc1 | 45

Entry CCc1ncnc(N2CCC3(CCCCC3)CC2)c1C#Cc1ccc(N)nc1 ; assay system mTOR (Homo sapiens (Human), UniProt P42345); IC50 recorded at 333

----------
mTOR (Homo sapiens (Human)) data, read-out pIC50
# pIC50: negative log10 of molar concentration; output just the value

Answered examples (3):
Compound | pIC50
CCc1ncnc(N2CCCC(CO)C2)c1C#Cc1ccc(C)nc1 (stereo not drawn) | 6.97
Cc1ncnc(N2CCC(O)(C3CCCCC3)CC2)c1C#Cc1ccc(N)nc1 | 7.52
CCc1ncnc(N2CCc3cc(OC)c(OC)cc3C2)c1C#Cc1ccc(N)nc1 | 7.08

Entry CC(=O)NCC1CCN(c2ncnc(C)c2C#Cc2ccc(N)nc2)CC1 ; assay system mTOR (Homo sapiens (Human)); pIC50 recorded at 7.82

Entry Cc1ncnc(N2CCC(CNC(=O)CC3CCCC3)CC2)c1C#Cc1ccc(N)nc1 ; assay system mTOR (Homo sapiens (Human)); pIC50 recorded at 7.80

----------
Target: mTOR (Homo sapiens (Human))
Decision: IC50 beneath 10 nM gives rule met; IC50 meeting or exceeding 10 nM gives rule not met.

Illustrative cases are given below, each with its answer.
Mol | Target Of Assay | Class
Cc1ncnc(N2CCC(CCO)CC2)c1C#Cc1ccc(N)nc1 | mTOR (Homo sapiens (Human)) | rule met
CCc1ncnc(N2CCC(O)(C(C)C)CC2)c1C#Cc1ccc(N)nc1 | mTOR (Homo sapiens (Human)) | rule met
Cc1ncnc(N2CCNC(=O)CC2)c1C#Cc1ccc(N)nc1 | mTOR (Homo sapiens (Human)) | rule not met
CCc1ncnc(N2CCN(c3ccccc3)CC2)c1C#Cc1ccc(N)nc1 | mTOR (Homo sapiens (Human)) | rule not met
CCc1ncnc(N2CCC3(CCN(C)C3=O)CC2)c1C#Cc1ccc(N)nc1 | mTOR (Homo sapiens (Human)) | rule met

### Prompt Lab note: confirm whether the reported IC50 for this compound is below 10 nM, equality not counting. compound: CCc1ncnc(N2CCOC(C)(C)C2)c1C#Cc1ccc(N)nc1
### Response rule not met

----------
Molecular target: PI3Kalpha (Homo sapiens (Human), UniProt P42336)
Sequence (P42336 whole entry, species assumed): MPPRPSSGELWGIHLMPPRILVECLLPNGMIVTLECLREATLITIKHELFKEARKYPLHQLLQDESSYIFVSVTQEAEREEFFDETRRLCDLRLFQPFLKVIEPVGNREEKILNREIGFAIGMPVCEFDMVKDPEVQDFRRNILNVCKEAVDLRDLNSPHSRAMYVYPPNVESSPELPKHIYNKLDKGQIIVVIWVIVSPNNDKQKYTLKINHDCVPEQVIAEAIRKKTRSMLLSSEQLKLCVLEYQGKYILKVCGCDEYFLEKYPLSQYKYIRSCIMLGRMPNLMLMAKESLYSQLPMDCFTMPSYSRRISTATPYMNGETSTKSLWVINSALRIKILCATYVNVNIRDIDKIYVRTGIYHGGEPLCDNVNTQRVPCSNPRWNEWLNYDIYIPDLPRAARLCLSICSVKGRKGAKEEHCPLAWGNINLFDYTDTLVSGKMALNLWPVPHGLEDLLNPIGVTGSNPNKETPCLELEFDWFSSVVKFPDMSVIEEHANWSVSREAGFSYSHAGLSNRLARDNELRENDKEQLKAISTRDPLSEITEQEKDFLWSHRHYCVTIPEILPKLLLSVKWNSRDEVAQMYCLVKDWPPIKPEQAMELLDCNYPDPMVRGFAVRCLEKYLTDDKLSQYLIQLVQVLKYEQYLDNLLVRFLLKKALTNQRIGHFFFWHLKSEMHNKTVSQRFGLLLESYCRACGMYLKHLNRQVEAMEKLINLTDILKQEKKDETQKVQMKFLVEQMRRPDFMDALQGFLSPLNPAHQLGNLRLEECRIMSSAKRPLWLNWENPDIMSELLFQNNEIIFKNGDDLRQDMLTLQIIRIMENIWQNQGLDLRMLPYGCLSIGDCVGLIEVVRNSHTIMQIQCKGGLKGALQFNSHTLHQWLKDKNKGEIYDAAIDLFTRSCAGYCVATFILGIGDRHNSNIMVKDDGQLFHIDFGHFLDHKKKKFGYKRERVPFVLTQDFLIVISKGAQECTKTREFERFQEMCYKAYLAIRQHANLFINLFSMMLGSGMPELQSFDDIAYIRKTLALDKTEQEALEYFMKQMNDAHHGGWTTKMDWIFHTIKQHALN
Sequence (P27986 whole entry partner, species assumed): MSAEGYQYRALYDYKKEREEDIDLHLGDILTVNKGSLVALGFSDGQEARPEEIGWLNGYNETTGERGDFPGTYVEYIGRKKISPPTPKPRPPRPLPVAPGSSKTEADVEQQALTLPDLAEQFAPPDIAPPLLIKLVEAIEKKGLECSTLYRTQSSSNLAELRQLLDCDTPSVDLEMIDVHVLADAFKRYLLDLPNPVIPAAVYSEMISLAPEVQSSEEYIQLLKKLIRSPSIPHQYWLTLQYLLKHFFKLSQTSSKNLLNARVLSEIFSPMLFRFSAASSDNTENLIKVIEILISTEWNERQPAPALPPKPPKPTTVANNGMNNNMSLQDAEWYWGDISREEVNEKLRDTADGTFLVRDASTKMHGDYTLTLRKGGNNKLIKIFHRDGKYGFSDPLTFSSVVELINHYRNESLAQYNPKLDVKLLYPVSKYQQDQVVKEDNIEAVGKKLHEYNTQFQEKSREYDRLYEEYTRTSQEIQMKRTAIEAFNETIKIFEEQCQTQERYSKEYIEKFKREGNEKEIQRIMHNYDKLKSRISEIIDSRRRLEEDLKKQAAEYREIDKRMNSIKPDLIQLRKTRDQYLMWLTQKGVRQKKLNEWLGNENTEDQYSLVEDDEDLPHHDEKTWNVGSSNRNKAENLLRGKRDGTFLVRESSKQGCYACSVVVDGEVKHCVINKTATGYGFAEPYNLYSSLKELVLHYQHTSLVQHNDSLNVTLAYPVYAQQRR
Test: Inhibition of PI3Kalpha-induced PIP-2 phosphorylation (filter-binding assay)
Type: biochemical
Settings: 33P-ATP
Procedure: Inhibition of PI3Kalpha-Induced PIP-2 Phosphorylation Method Type: Filter-Binding-Assay Aliquoted in desired amounts and stored at −80° C. Final assay concentration 25 ng/well.
Decision: IC50 PI3Ka beneath 0.07 µM gives Criterion met; IC50 PI3Ka meeting or exceeding 0.07 µM gives Criterion not met.

Illustrative cases are given below, each with its answer.
Compound | Class
Cc1ncnc(N2CCC(O)(C(F)(F)F)CC2)c1C#Cc1ccc(N)nc1 | Criterion met
COCCN1CCN(c2ncnc(C)c2C#Cc2ccc(N)nc2)CC1 | Criterion not met
CCc1ncnc(N2CCC(O)(Cc3ccccc3)CC2)c1C#Cc1ccc(N)nc1 | Criterion not met
CCCCCC(=O)NCC1CCN(c2ncnc(C)c2C#Cc2ccc(N)nc2)CC1 | Criterion met
CCc1ncnc(N2CCc3cc(OC)c(OC)cc3C2)c1C#Cc1ccc(N)nc1 | Criterion met
CCc1ncnc(N2CCCC(NC(C)=O)C2)c1C#Cc1ccc(N)nc1 (stereo not shown) | Criterion not met
COCCNC(=O)CC1CCN(c2ncnc(C)c2C#Cc2ccc(N)nc2)CC1 | Criterion met
CC(=O)N1CCCN(c2ncnc(C)c2C#Cc2ccc(N)nc2)CC1 | Criterion not met
CCc1ncnc(N2CCC(=O)CC2)c1C#Cc1ccc(N)nc1 | Criterion not met
CCc1ncnc(N2CCN(C(=O)c3ccco3)CC2)c1C#Cc1ccc(N)nc1 | Criterion met

### Prompt Lab note: confirm whether the reported IC50 PI3Ka for this compound is below 0.07 µM, equality not counting. compound: CCc1ncnc(N2CCc3ncncc3C2)c1C#Cc1ccc(N)nc1
### Response Criterion met

### Prompt Lab note: confirm whether the reported IC50 PI3Ka for this compound is below 0.07 µM, equality not counting. compound: CCc1ncnc(N2CCN(c3ccccn3)CC2)c1C#Cc1ccc(N)nc1
### Response Criterion met

### Prompt Lab note: confirm whether the reported IC50 PI3Ka for this compound is below 0.07 µM, equality not counting. compound: Cc1ncnc(N2CCN(CC(C)(C)O)CC2)c1C#Cc1ccc(N)nc1
### Response Criterion met

### Prompt Lab note: confirm whether the reported IC50 PI3Ka for this compound is below 0.07 µM, equality not counting. compound: CCc1ncnc(N2CCN(C(=O)c3ccccc3)CC2)c1C#Cc1ccc(N)nc1
### Response Criterion not met

### Prompt Lab note: confirm whether the reported IC50 PI3Ka for this compound is below 0.07 µM, equality not counting. compound: CCc1ncnc(N2CCN(CCOC)CC2)c1C#Cc1ccc(N)nc1
### Response Criterion not met

### Prompt Lab note: confirm whether the reported IC50 PI3Ka for this compound is below 0.07 µM, equality not counting. compound: CCOC1CCN(c2ncnc(CC)c2C#Cc2ccc(C)nc2)CC1
### Response Criterion not met

### Prompt Lab note: confirm whether the reported IC50 PI3Ka for this compound is below 0.07 µM, equality not counting. compound: CCc1ncnc(N2CCC3(CCN(C(C)=O)CC3)CC2)c1C#Cc1ccc(N)nc1
### Response Criterion met

### Prompt Lab note: confirm whether the reported IC50 PI3Ka for this compound is below 0.07 µM, equality not counting. compound: Cc1ncnc(N2CCCOCC2)c1C#Cc1ccc(N)nc1
### Response Criterion not met

### Prompt Lab note: confirm whether the reported IC50 PI3Ka for this compound is below 0.07 µM, equality not counting. compound: Cc1ncnc(N2CCOC(C)(C)C2)c1C#Cc1ccc(N)nc1
### Response Criterion met

### Prompt Lab note: confirm whether the reported IC50 PI3Ka for this compound is below 0.07 µM, equality not counting. compound: Cc1ncnc(N2CCn3c(C)cnc3C2)c1C#Cc1ccc(N)nc1
### Response Criterion met

### Prompt Lab note: confirm whether the reported IC50 PI3Ka for this compound is below 0.07 µM, equality not counting. compound: CCc1ncnc(N2CCN(c3cccnc3)CC2)c1C#Cc1ccc(N)nc1
### Response Criterion met
